# testSystem: T1, rat serum albumin (rat, UniProt P02770 25-608, biotin)
# T1 chain: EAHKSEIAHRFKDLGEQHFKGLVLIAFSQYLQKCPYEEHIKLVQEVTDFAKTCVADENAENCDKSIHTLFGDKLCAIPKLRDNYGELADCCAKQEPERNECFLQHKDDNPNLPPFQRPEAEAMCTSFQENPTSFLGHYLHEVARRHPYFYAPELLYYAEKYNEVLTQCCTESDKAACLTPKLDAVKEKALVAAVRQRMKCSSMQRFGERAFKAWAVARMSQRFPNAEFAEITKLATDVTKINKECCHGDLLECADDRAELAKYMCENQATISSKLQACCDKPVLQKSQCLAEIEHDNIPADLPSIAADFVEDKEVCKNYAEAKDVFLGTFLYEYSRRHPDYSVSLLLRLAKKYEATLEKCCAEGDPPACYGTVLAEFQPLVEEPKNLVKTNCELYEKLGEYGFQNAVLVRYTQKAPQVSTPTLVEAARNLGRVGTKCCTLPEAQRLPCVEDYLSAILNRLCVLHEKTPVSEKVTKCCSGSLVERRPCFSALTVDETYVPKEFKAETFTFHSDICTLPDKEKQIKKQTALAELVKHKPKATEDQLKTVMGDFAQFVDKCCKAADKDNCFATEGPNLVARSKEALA
# assayExplanation: SPR
experimentalReadout: pKd
Notebook: values listed as pKd are -log10 of the concentration (mol/L).

State, in one line, measured pKd of RLIEDICLPRWGCLWEDD [SA21]
6.72
